# Test method notes: Dose normalized AUC (0 to t) in Sprague-Dawley rat at 5 to 10 mg/kg, po administered as cassette dose measured upto 24 hrs by LC-MS analysis
# Type: ADME, organism-based
# Condition set: in vivo, dose 5-10 mg/kg
Property: AUCt/dose (ng·h/mL/mg)

O=C1CCC(N2Cc3c(OC4CN(CC#CCN5CCN(c6ccc(C(F)(F)F)cc6)CC5)C4)cccc3C2=O)C(=O)N1 (stereo not drawn) :: 128

a. O=C1CCC(N2C(=O)c3cccc(NCCN4CCN(CC#CCOc5ccc(C(F)(F)F)cc5)CC4)c3C2=O)C(=O)N1 (stereo not drawn)
b. O=C1CCC(N2Cc3ccc(C#CCN4CCN(CC#CCOc5ccc(C(F)(F)F)cc5)CC4)cc3C2=O)C(=O)N1 (stereo not drawn)
Compare a and b by numeric AUCt/dose and name the larger one. Reply with the label of the item you choose.
b
(b: 796 ng·h/mL/mg, a: 65 ng·h/mL/mg)

----------
# Test method notes: MRT in ICR mouse at 2 mg/kg, iv measured upto 48 hrs by LC/MS analysis
# Assay type: ADME, organism-based
# Condition set: in vivo
Property: MRT (h)
The reply should contain only the number, in h.

Find the recorded MRT belonging to Nc1ncnc2c1c(-c1ccc(Oc3ccccc3)cc1)nn2C1CCN(C2CCN(CC#Cc3ccc4c(c3)CN(C3CCC(=O)NC3=O)C4=O)CC2)CC1 (stereo unspecified) and report it.
4.5

----------
# Test method notes: Tmax in ICR mouse at 20 mg/kg, po administered as single dose measured upto 48 hrs by LC-MS analysis
# Format: ADME, organism-based
# Condition set: in vivo
Property: Tmax (min)

a. Nc1ncnc2c1c(-c1ccc(Oc3ccccc3)cc1)nn2[C@@H]1CCCN(C(=O)CC(=O)NCC#CCN2CCN(CC#Cc3ccc4c(c3)CN(C3CCC(=O)NC3=O)C4=O)CC2)C1 (some centres not stated)
b. Nc1ncnc2c1c(-c1ccc(Oc3ccccc3)cc1)nn2[C@@H]1CCCN(C(=O)CCC(=O)N2CCN(CC#Cc3ccc4c(c3)CN(C3CCC(=O)NC3=O)C4=O)CC2)C1 (some centres not stated)
Name the one with the greater Tmax value, either a or b as given. Answer with the label corresponding to your selection.
b

----------
# Test method notes: Half life in ICR mouse at 100 mg/kg, po measured upto 48 hrs by LC/MS analysis
# Type: ADME, organism-based
# Condition set: in vivo
Property: half-life (h)

Nc1ncnc2c1c(-c1ccc(Oc3ccccc3)cc1)nn2C1CCN(C2CCN(CC#Cc3ccc4c(c3)CN(C3CCC(=O)NC3=O)C4=O)CC2)CC1 (configuration not stated) :: 1
Nc1ncnc2c1c(-c1ccc(Oc3ccccc3)cc1)nn2[C@@H]1CCCN(C(=O)[C@H]2CCCC[C@H]2C(=O)NCC#CCN2CCN(CC#Cc3ccc4c(c3)CN(C3CCC(=O)NC3=O)C4=O)CC2)C1 (some centres not stated) :: 1

----------
# Test method notes: Oral bioavailability in ICR mouse at 100 mg/kg measured upto 48 hrs by LC/MS analysis
# Assay type: ADME, organism-based
# Condition set: in vivo
Property: bioavailability (%)
I only need the number, in %, no unit after it.

If you can, please state the reported bioavailability value of Nc1ncnc2c1c(-c1ccc(Oc3ccccc3)cc1)nn2C1CCN(C2CCN(CC#Cc3ccc4c(c3)CN(C3CCC(=O)NC3=O)C4=O)CC2)CC1 (stereo unspecified) .
12

Data provenance: ChEMBL document CHEMBL5131541
